Where do these numbers come from? They come from PubChem BioAssay AID1159580.

Assay: chemical genetic growth profiling, strain panel (AID 1159580);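 note: tested at 20 µM; growth read once vehicle control cultures reached saturation at 30 °C; 1 = growth at the plate median or of vehicle wells; lower values mean less growth of the strain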
Details: S. cerevisiae deletion strains, growth OD, locus YIL073C, strain SPO22, hits give low values
About 2,000 (36%) of roughly 5,500 compounds were called active. Not shown: some 18% with an inconclusive outcome. Some of the results follow.
assay-endpoint: normalized growth
Form rule: numeric answer, no unit written next to it.

Use these answered entries as a reference point.
CC(C)=CCc1c(O)cc(C)oc1=O : 1.08
CN=C(NC#N)NCCSCc1nc[nH]c1C : 1.01
CC(C)=CCc1c(O)cc2oc(C)cc(=O)c2c1O : 1.01
O=c1ccc2ccccc2o1 : 0.985
COC(=O)COc1ccc(Cl)cc1Cl : 1.08

Request: Annotate the compound `O=C(O)COc1cc(Cl)c(Cl)cc1Cl` with its measured normalized growth.
Response: 1.09

Request: Fill in normalized growth for record `COC(=O)COc1cc(Cl)c(Cl)cc1Cl`
Response: 1.04

----------
Experiment: chemical genetic growth profiling, strain panel (AID 1159580)
Conditions: S. cerevisiae deletion strains, growth OD, locus YBR009C, strain hhf1
The whole screen tested about 5,500 compounds, of which about 2,000 (36%) were called active. Roughly 18% stayed inconclusive and do not appear here. No stated cut-off is given here; in the data, active means normalized growth mostly below about 0.91 (no sharp cut-off); inconclusive means no clear call, values can overlap the other calls; inactive means mostly above about 0.92. Some of the results follow.
Respond with a class label; see label 1 for active, label 0 for inactive

O=C(O)C1CC([C@@H]2CCCCN2)CN2CCCCC12 (some centres not stated) : label 0
COc1cccc2c1CCC1CC(=O)CCC21C (configuration not stated) : label 0
CCCCCCCC/C=C/CCCCCCCCOP(=O)([O-])OCC[N+](C)(C)C : label 1
NC(N)=Nc1nc(CSCCC(N)=NS(N)(=O)=O)cs1 : label 0
C[N+](C)(C)CCOP(=O)([O-])OP(=O)(O)OC[C@H]1OC(n2ccc(N)nc2=O)[C@H](O)[C@@H]1O (some centres not stated) : label 0
CC(C)(CO)C(O)C(=O)NCCCO (configuration not stated) : label 0

Query compound follows.
Request: # fetch the recorded call for COc1ccc2c(c1)C1(C)CCC(=O)CC1CC2 (configuration not stated) here
Response: label 0

----------
Experiment: chemical genetic growth profiling, strain panel (AID 1159580)
Conditions: S. cerevisiae deletion strains, growth OD, locus YBR160W, strain CDC28
The campaign covered roughly 5,500 compounds. About 2,000 (36%) were called active. Roughly 18% stayed inconclusive and do not appear here. Rule as the data show it: active = normalized growth mostly below about 0.91 (no sharp cut-off); inconclusive = no clear call, values can overlap the other calls; inactive = mostly above about 0.92. Some of the results follow.
Your reply should match one of these outcome classes. t (active), f (inactive)

Some entries whose results are on file:
N#Cc1c(Cl)c(Cl)c(Cl)c(Cl)c1C#N : t
O=C(NCc1ccco1)c1ccc(Oc2cc(Cl)cc(Cl)c2)o1 : f
O=C(C=C(O)c1ccc(Br)cc1)C(=O)Nc1ccccc1 : t
Cc1cc(SCc2[nH]nc3oc(=O)cc(C)c23)c(Cl)cc1Cl : f
CC1=CC(=O)C(CCOCCC2=CC(=O)C(C)=CC2=O)=CC1=O : f

Request: In this assay, the call recorded for `C=CC(=O)N1CCc2cc([N+](=O)[O-])ccc21` was what?
Response: t

----------
Experiment: chemical genetic growth profiling, strain panel (AID 1159580)
Conditions: S. cerevisiae deletion strains, growth OD, locus YOR070C, strain gyp1, hits give low values
Out of some 5,500 compounds screened, about 2,000 (36%) were called active. Roughly 18% stayed inconclusive and do not appear here. The list shows a part of the results.
assay-endpoint: normalized growth
Form rule: numeric answer, no unit written next to it.

Example cases with answers are listed next.
O=C(O)c1ccccc1OP(=O)(O)O : 0.998
CC(=O)[C@H]1CCC2C3C[C@H](C)C4=CC(=O)CC[C@]4(C)C3[C@@H](O)C[C@@]21C (stereo not given in full) : 0.986
CCOC(=O)c1ncn2c1CN(C)C(=O)c1cc(F)ccc1-2 : 1.02
C[CH2][Hg][S]c1ccccc1C(=O)O : 0.0575
CCCCCC(=O)O[C@]1(C(C)=O)CCC2C3CCC4=CC(=O)CC[C@]4(C)C3CC[C@@]21C (stereo not given in full) : 1

Request: Give the value of normalized growth reported for the following: CC(=O)O[C@]1(C(C)=O)CCC2C3C=C(Cl)C4=CC(=O)CC[C@]4(C)C3CC[C@@]21C (stereo not given in full)
Response: 0.978

Request: Look up normalized growth of `C=CC1=C(C(=O)O)N2C(=O)[C@@H](NC(=O)/C(=N/O)c3csc(N)n3)[C@H]2SC1` and report it.
Response: 1.01

Request: Item `COc1ccc2cc1Oc1ccc(cc1)C[C@H]1c3cc(c(OC)cc3CCN1C)Oc1c(OC)c(OC)cc3c1[C@H](C2)N(C)CC3` : provide normalized growth
Response: 1

Request: Fill in reported normalized growth for this entry: `CC(C)[N+](C)(CCOC(=O)C1c2ccccc2Oc2ccccc21)C(C)C`
Response: 1.01

Request: Give recorded normalized growth. `S=C=NCc1ccccc1`
Response: 0.106

----------
Test: chemical genetic growth profiling, strain panel (AID 1159580)
Details: S. cerevisiae deletion strains, growth OD, locus YJL095W, strain BCK1 (second series), hits give low values
Out of some 5,500 compounds screened, about 2,000 (36%) were called active. Roughly 18% stayed inconclusive and do not appear here. This is one part of the list.
normalized growth by entry:
Give a plain numeric answer without units written out.

Consider the worked cases shown below.
S=C=NCc1ccccc1 : 0.0601
Cc1cc(C(C)(C)CC(C)(C)C)ccc1OCCOCC[N+](C)(C)Cc1ccccc1 : 0.0554
CCCCCCCCCCCCCCCCOP(=O)([O-])OCC[N+](C)(C)C : 0.0584

Request: Determine from records and report normalized growth for `CC(C)=CCc1c(O)cc2oc(C)cc(=O)c2c1O`
Response: 0.97

Request: Identify measured normalized growth associated with COc1ccc2c(c1)C1(C)CCC(=O)CC1CC2 (stereo unspecified)
Response: 1.01

----------
Experiment: chemical genetic growth profiling, strain panel (AID 1159580);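 note: tested at 20 µM; growth read once vehicle control cultures reached saturation at 30 °C; 1 = growth at the plate median or of vehicle wells; lower values mean less growth of the strain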
Conditions: S. cerevisiae deletion strains, growth OD, locus YJL166W, strain qcr8, hits give low values
Out of some 5,500 compounds screened, about 2,000 (36%) were called active. Another 18% or so got no clear call; they are omitted. The list shows a part of the results.
assay-endpoint: normalized growth
Enter a number only.

Answered examples (3):
Cc1cc(=O)c2c(O)c(C)c(O)cc2o1 : 1.01
Cc1cccc(Nc2cc(Cl)nc(SCC(=O)O)n2)c1C : 1.01
O=C(O)COc1cc(Cl)c(Cl)cc1Cl : 1.01

Request: Tell me its normalized growth given CO[C@H]1C[C@H](O[C@H]2[C@H](C)[C@@H](OC3O[C@H](C)C[C@H](N(C)C)[C@H]3O)[C@@H](C)C[C@]3(CO3)C(=O)[C@H](C)[C@@H](O)[C@@H](C)[C@@H](C)OC(=O)[C@@H]2C)O[C@@H](C)[C@@H]1O (some centres not stated) as the entry.
Response: 1.03

Request: # return recorded normalized growth for input CC(=O)[C@H]1CCC2C3C[C@H](C)C4=CC(=O)CC[C@]4(C)C3[C@@H](O)C[C@@]21C (some centres not stated)
Response: 0.979

Request: Identify the reported normalized growth for the following entry. CC(C)(CO)C(O)C(=O)NCCCO (configuration not stated)
Response: 1.02

Request: Hello, please tell me recorded normalized growth for this one: `COc1ccc2c(c1)OC[C@@H](Cc1ccc(OC)c(OC)c1)[C@H]2O`
Response: 1.01

Request: Quickly give me recorded normalized growth for CC(=O)O[C@H]1C(=O)[C@@]2(C)C([C@H](OC(=O)c3ccccc3)[C@]3(O)C[C@H](OC(=O)[C@H](O)[C@@H](NC(=O)c4ccccc4)c4ccccc4)C(C)=C1C3(C)C)[C@]1(OC(C)=O)CO[C@@H]1C[C@@H]2O (some centres not stated)
Response: 1.01

Request: Please list normalized growth recorded for the compound `CC(C)[C@H](N)C(=O)OCCOCn1cnc2c(=O)[nH]c(N)nc21`
Response: 1.03

Request: Note normalized growth for the compound shown: `NC(N)=NOCC[C@H](N)C(=O)O`
Response: 1.02

----------
Test: chemical genetic growth profiling, strain panel (AID 1159580);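 note: tested at 20 µM; growth read once vehicle control cultures reached saturation at 30 °C; 1 = growth at the plate median or of vehicle wells; lower values mean less growth of the strain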
Settings: S. cerevisiae deletion strains, growth OD, locus YPR141C, strain kar3, hits give low values
The campaign covered roughly 5,500 compounds. About 2,000 (36%) were called active. Roughly 18% stayed inconclusive and do not appear here. The list shows a part of the results.
assay-endpoint: normalized growth

COc1c(CC=C(C)C)c2c(c3oc(=O)c(-c4ccc(O)cc4)c(O)c13)C=CC(C)(C)O2 : 1 (inactive)

Request: Supply measured normalized growth of `COc1c(CC=C(C)C)c2c(c3oc(=O)c(-c4ccc(OC(C)=O)cc4)c(OC(C)=O)c13)C=CC(C)(C)O2` in your reply.
Response: 1 (inactive)

----------
Listed compounds paired with reported normalized growth
Assay: chemical genetic growth profiling, strain panel (AID 1159580);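 note: tested at 20 µM; growth read once vehicle control cultures reached saturation at 30 °C; 1 = growth at the plate median or of vehicle wells; lower values mean less growth of the strain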
Conditions: S. cerevisiae deletion strains, growth OD, locus YPR106W, strain ISR1, hits give low values
Hit rate of the full screen: of about 5,500 compounds, about 2,000 (36%) were called active. Inconclusive results (about 18%) are left out. Some of the results follow.
Give your answer as a number; write no unit.

For orientation, consider the following solved cases.
Cc1c(C(=O)N2CCCCC2)cc(-c2ccccc2)n1-c1ccccc1 : 0.958
CCC(C)c1ccccc1NC(=O)c1cc2cccc([N+](=O)[O-])c2[nH]1 (stereo unspecified) : 0.958

Request: Give recorded normalized growth. `O=[N+]([O-])c1cc(C(F)(F)F)ccc1-n1ccc(-c2cccs2)n1`
Response: 0.954

Request: Note down normalized growth recorded for `Cn1cncc1S(=O)(=O)/C(C#N)=C/c1ccccc1Sc1ccc(Cl)cc1`
Response: 0.981

Request: Identify measured normalized growth corresponding to Cc1ccccc1C(=O)N1CCc2c([nH]c3ccccc23)C1C(F)(F)F (stereo unspecified)
Response: 0.965

Request: Retrieve normalized growth measured for `C/C(=N/NC(N)=S)c1ccccn1` and print it.
Response: 0.984
